Test system: rodent lifetime carcinogenesis bioassay, tumor incidence TD50
Assay Text: carcinogenic potency in animals, long-term in vivo studies, CPDB compilation (AID 1745844)
Run Conditions: mouse; strain B6C3F1; females; by gavage; site: liver; lesion: hepatocellular carcinoma; dosed 88 weeks; study length 104 weeks
Observable: TD50 (mg/kg/day)
Record the value in mg/kg/day, omitting the unit from your answer.

Find the recorded TD50 belonging to ClCC(Cl)CCl and report it.
28.7

* * *

Test system: rodent lifetime carcinogenesis bioassay, tumor incidence TD50
Assay Text: carcinogenic potency in animals, long-term in vivo studies, CPDB compilation (AID 1745844)
Run Conditions: mouse; strain CD-1 HaM/ICR; males; in feed; site: lung; lesion: several types; types named in the paper; dosed 77 weeks; study length 94 weeks
The source made the active and inactive calls. How the calls were made is not given here.
Respond using exactly one of the listed classes: TRUE (active), FALSE (inactive)

These recorded examples may help you get a feel for the data.
How did this test come out for O=[N+]([O-])c1ccc(Cl)c([N+](=O)[O-])c1 ?
FALSE

Another compound: Nc1c(F)c(N)c(F)c(F)c1F
FALSE

Another compound: Nc1ccc(-c2ccc(N)c(N)c2)cc1N
TRUE

Next:
How did this test come out for Nc1ccc(Cc2ccc(N)c(Cl)c2)cc1Cl ?
FALSE

Each recorded value in this set is attributed to PubChem BioAssay AID1745844.
